B1: library; the commonest letter at each place (parent)
chain: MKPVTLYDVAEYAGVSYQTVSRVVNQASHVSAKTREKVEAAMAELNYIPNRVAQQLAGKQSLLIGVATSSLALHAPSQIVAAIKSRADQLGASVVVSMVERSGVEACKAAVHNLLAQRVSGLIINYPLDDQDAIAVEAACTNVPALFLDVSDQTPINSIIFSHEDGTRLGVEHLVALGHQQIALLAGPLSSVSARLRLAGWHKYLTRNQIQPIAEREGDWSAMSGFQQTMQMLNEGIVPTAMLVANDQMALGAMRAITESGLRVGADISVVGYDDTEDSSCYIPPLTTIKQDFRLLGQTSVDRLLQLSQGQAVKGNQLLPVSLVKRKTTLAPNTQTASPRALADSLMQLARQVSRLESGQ

- Variants of: B1
- EXPERIMENT_DESCRIPTION: saturating output G-infinity (YFP) (log10 MEF); higher = higher reporter expression at saturating IPTG
- RECORDED_CONDITIONS: with IPTG
variants and their reported saturating output G-infinity (log10)
// response body must contain only the number

q: // lookup saturating output G-infinity (log10) for V9I R255C E259D T336I R355Q
a: 4.51

q: // lookup saturating output G-infinity (log10) for `V80L`
a: 3.91

q: // lookup saturating output G-infinity (log10) for S97T G200C
a: 4.44

---
q: // lookup saturating output G-infinity (log10) for S70R S97T F161V
a: 4.43

q: // lookup saturating output G-infinity (log10) for K84E D88Y L90P Q153L A199V L342M R351P S358R
a: 3.72

q: // lookup saturating output G-infinity (log10) for S69T S279T
a: 4.43

q: // lookup saturating output G-infinity (log10) for `V271M`
a: 4.41

q: // lookup saturating output G-infinity (log10) for V99E A116T T141I S190C
a: 4.45

q: // lookup saturating output G-infinity (log10) for S69T L169P
a: 4.36

q: // lookup saturating output G-infinity (log10) for `S279T`
a: 4.46

q: // lookup saturating output G-infinity (log10) for Q89L S158C E172K Q291H
a: 4.34

q: // lookup saturating output G-infinity (log10) for S97T V136E
a: 4.33
